# experimentalTarget: human adenosine A2A receptor (Homo sapiens)
# Construct: expressed in transfected cells; host or cells: CHO cells, semliki forest virus expression system; membranes used
# assayComment: Human adenosine A2A receptor [3H]-SCH-58261 binding assay
# assayConditions: hA2A versus hA1
measurementKind: Selectivity

Before answering, review these 3 worked examples.
INSERT INTO results (chemsmiles, experimentaltarget, recordedresult) VALUES
  ('COc1cnc(N2CCOCC2)c2sc(NC(=O)c3ccc(CN4CCOCC4)cc3)nc12', 'human adenosine A2A receptor (Homo sapiens)', 446),
  ('COc1cnc(N2CCOCC2)c2sc(NC(=O)N3CCC(C)(CO)CC3)nc12', 'human adenosine A2A receptor (Homo sapiens)', 593),
  ('COc1cnc(N2CCOCC2)c2sc(NC(=O)c3ccc4c(c3)OCO4)nc12', 'human adenosine A2A receptor (Homo sapiens)', 527);

1: COc1ccc(C(=O)Nc2nc3c(OC)cnc(N4CCOCC4)c3s2)cn1
2: COc1cnc(N2CCOCC2)c2sc(NC(=O)c3cccc(N4CCOCC4)c3)nc12
// query Kindly compare 1 with 2 and tell me which has the lower Selectivity figure. Respond using the label that marks the chosen record.
// result 1
(1: 519, 2: 1716)

----------
# experimentalTarget: human adenosine A2A receptor (Homo sapiens)
# Construct: expressed in transfected cells; host or cells: CHO cells, semliki forest virus expression system; membranes used
# assayComment: Human adenosine A2A receptor [3H]-SCH-58261 binding assay
# assayConditions: recombinant receptor expressed in CHO cells, [3H]-SCH-58261 1 nM, SPA; read-out: hA2A (converted)
measurementKind: Ki (µM)

Before answering, review these 2 worked examples.
INSERT INTO measurements (molecule, experimentaltarget, recordedresult) VALUES
  ('COCCN(C)Cc1ccc(C(=O)Nc2nc3c(OC)cnc(N4CCOCC4)c3s2)cc1 [Example 31]', 'human adenosine A2A receptor (Homo sapiens)', 0.0138),
  ('COc1cnc(N2CCOCC2)c2sc(NC(=O)N3CCC4(CCCO4)CC3)nc12 [Example 40]', 'human adenosine A2A receptor (Homo sapiens)', 0.0155);

I: COc1cnc(N2CCOCC2)c2sc(NC(=O)c3cccc(N4CCOCC4)c3)nc12 [Example 30]
II: COc1cnc(N2CCOCC2)c2sc(NC(=O)c3ccc(CN4CCOCC4)cc3)nc12 [Example 39]
// query So which one has the bigger Ki here, I or II ? Respond using the label that marks the chosen record.
// result II
(II: 0.0162 µM, I: 0.00407 µM)

----------
# experimentalTarget: human adenosine A2A receptor (Homo sapiens)
# Construct: expressed in transfected cells; host or cells: CHO cells, semliki forest virus expression system; membranes used
# assayComment: Human adenosine A2A receptor [3H]-SCH-58261 binding assay
# assayConditions: recombinant receptor expressed in CHO cells, [3H]-SCH-58261 1 nM, SPA; read-out: hA2A (converted)
measurementKind: Ki (nM)

I: COc1cnc(N2CCOCC2)c2sc(NC(=O)N3CCC(CO)CC3)nc12
II: COc1ccc(C(=O)Nc2nc3c(OC)cnc(N4CCOCC4)c3s2)cc1OC
// query Kindly compare I with II and tell me which has the lower Ki figure. Respond using the label that marks the chosen record.
// result I
(I: 6.76 nM, II: 13.8 nM)

----------
# experimentalTarget: human adenosine A2A receptor (Homo sapiens)
# Construct: expressed in transfected cells; host or cells: CHO cells, semliki forest virus expression system; membranes used
# assayComment: Human adenosine A2A receptor [3H]-SCH-58261 binding assay
# assayConditions: recombinant receptor expressed in CHO cells, [3H]-SCH-58261 1 nM, SPA; read-out: hA2A (converted)
measurementKind: Ki (nM)

INSERT INTO assay_data (compound, experimentaltarget, measurementkind, recordedresult) VALUES
  ('COc1cnc(N2CCOCC2)c2sc(NC(=O)c3ccnc(N4CCOCC4)c3)nc12 [Example 22]', 'human adenosine A2A receptor (Homo sapiens)', 'Ki', 3.89),
  ('COc1ccc(C(=O)Nc2nc3c(OC)cnc(N4CCOCC4)c3s2)cc1 [Example 3]', 'human adenosine A2A receptor (Homo sapiens)', 'Ki', 5.01),
  ('COc1cnc(N2CCOCC2)c2sc(NC(=O)c3ccncc3)nc12 [Example 17]', 'human adenosine A2A receptor (Homo sapiens)', 'Ki', 21.9);

P: COc1cnc(N2CCOCC2)c2sc(NC(=O)c3ccnc(C)c3)nc12 [Example 4]
Q: COc1cccc(C(=O)Nc2nc3c(OC)cnc(N4CCOCC4)c3s2)c1 [Example 7]
R: COc1cnc(N2CCOCC2)c2sc(NC(=O)c3cccc(F)c3)nc12 [Example 6]
S: COc1cnc(N2CCOCC2)c2sc(NC(=O)c3ccnc(CN4CCOCC4)c3)nc12 [Example 33]
T: COc1cnc(N2CCOCC2)c2sc(NC(=O)CC3CCOCC3)nc12 [Example 11]
// query Sort the 5 compounds by Ki; largest first, smallest last. List the labels, following the order given in the request.
// result S, T, P, R, Q

P: COc1cnc(N2CCOCC2)c2sc(NC(=O)N3CCC4(CCN(C)C4=O)CC3)nc12 [Example 37]
Q: COc1ccc(C(=O)Nc2nc3c(OC)cnc(N4CCOCC4)c3s2)cn1 [Example 21]
// query Kindly compare P with Q and tell me which has the lower Ki figure. Respond using the label that marks the chosen record.
// result Q

A: COc1cnc(N2CCOCC2)c2sc(NC(=O)c3ccc(N4CCOCC4)cc3)nc12 [Example 29]
B: COc1cnc(N2CCOCC2)c2sc(NC(=O)c3ccnc(N4CC(OC)C4)c3)nc12 [Example 19]
C: COc1cnc(N2CCOCC2)c2sc(NC(=O)c3ccnc(N4CC(O)C4)c3)nc12 [Example 18]
// query Sort the 3 compounds by Ki; largest first, smallest last. List the labels, following the order given in the request.
// result A, C, B
(A: 12.6 nM, C: 7.94 nM, B: 5.5 nM)

----------
# experimentalTarget: human adenosine A1 receptor (Homo sapiens, UniProt P30542)
# Construct: expressed in transfected cells; host or cells: CHO cells, semliki forest virus expression system; membranes used
# Sequence (P30542 whole entry): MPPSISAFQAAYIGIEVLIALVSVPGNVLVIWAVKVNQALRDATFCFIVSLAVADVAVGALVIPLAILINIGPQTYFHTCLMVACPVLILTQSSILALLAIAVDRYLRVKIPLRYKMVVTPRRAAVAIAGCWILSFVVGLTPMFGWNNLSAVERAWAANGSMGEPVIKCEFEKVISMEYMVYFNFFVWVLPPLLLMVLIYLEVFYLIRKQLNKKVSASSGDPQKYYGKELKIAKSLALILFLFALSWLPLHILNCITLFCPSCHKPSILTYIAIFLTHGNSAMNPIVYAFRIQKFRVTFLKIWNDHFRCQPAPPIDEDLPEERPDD
# assayComment: Human adenosine A1 receptor [3H]-DPCPX binding assay
# assayConditions: recombinant receptor expressed in CHO cells, [3H]-DPCPX 0.6 nM, SPA; read-out: hA1 (converted)
measurementKind: Ki (µM)

Before answering, review these 3 worked examples.
INSERT INTO assay_data (compound, unitssymbol, recordedresult) VALUES
  ('COc1cnc(N2CCOCC2)c2sc(NC(=O)c3ccncc3)nc12 [Example 17]', 'µM', 5.62),
  ('COc1cnc(N2CCOCC2)c2sc(NC(=O)N3CCC(CO)CC3)nc12 [Example 36]', 'µM', 3.16),
  ('COc1ccc(C(=O)Nc2nc3c(OC)cnc(N4CCOCC4)c3s2)cc1 [Example 3]', 'µM', 1.91);

1: COCCN(C)Cc1ccc(C(=O)Nc2nc3c(OC)cnc(N4CCOCC4)c3s2)cc1 [Example 31]
2: COc1cnc(N2CCOCC2)c2sc(NC(=O)c3ccc4c(c3)OCO4)nc12 [Example 9]
// query Kindly compare 1 with 2 and tell me which has the lower Ki figure. Respond using the label that marks the chosen record.
// result 2
(2: 3.8 µM, 1: 6.03 µM)

----------
# experimentalTarget: human adenosine A1 receptor (Homo sapiens, UniProt P30542)
# Construct: expressed in transfected cells; host or cells: CHO cells, semliki forest virus expression system; membranes used
# assayComment: Human adenosine A1 receptor [3H]-DPCPX binding assay
# assayConditions: recombinant receptor expressed in CHO cells, [3H]-DPCPX 0.6 nM, SPA; read-out: hA1 (converted)
# Experimental: The human adenosine A1 receptor was recombinantly expressed in Chinese hamster ovary (CHO) cells using the semliki forest virus expression system. Cells were harvested, washed twice by centrifugation, homogenized and again washed by centrifugation. […] Assay plates were incubated for 1 hour at room temperature before centrifugation and then bound ligand determined using a Packard Topcount scintillation counter. […]
measurementKind: Ki (µM)

Before answering, review these 3 worked examples.
INSERT INTO measurements (chemsmiles, recordedresult) VALUES
  ('COc1cnc(N2CCOCC2)c2sc(NC(=O)c3cccc(F)c3)nc12', 1.66),
  ('COc1cnc(N2CCOCC2)c2sc(NC(=O)c3ccnc(N4CCOCC4)c3)nc12', 6.46),
  ('COc1cc(C(=O)Nc2nc3c(OC)cnc(N4CCOCC4)c3s2)ccn1', 6.31);

I: COc1cnc(N2CCOCC2)c2sc(NC(=O)N3CCC4(CCCO4)CC3)nc12
II: COc1cccc(C(=O)Nc2nc3c(OC)cnc(N4CCOCC4)c3s2)c1
// query Kindly compare I with II and tell me which has the lower Ki figure. Respond using the label that marks the chosen record.
// result II

----------
# experimentalTarget: human adenosine A2A receptor (Homo sapiens, UniProt P29274)
# Construct: expressed in transfected cells; host or cells: CHO cells, semliki forest virus expression system; membranes used
# Sequence (P29274 whole entry): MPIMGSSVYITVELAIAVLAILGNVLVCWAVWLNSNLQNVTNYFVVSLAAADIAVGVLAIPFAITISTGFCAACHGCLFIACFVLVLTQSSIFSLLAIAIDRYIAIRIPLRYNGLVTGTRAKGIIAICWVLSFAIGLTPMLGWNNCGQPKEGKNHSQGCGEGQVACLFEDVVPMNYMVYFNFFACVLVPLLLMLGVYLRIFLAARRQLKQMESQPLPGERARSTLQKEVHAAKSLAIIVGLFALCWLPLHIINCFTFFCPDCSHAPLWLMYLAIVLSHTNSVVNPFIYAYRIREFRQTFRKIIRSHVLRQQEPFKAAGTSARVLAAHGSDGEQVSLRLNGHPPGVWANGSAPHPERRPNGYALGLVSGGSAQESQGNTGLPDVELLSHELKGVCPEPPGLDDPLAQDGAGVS
# assayComment: Human adenosine A2A receptor [3H]-SCH-58261 binding assay
# assayConditions: hA2A versus hA1
measurementKind: Selectivity

INSERT INTO results (chemsmiles, recordedresult) VALUES
  ('COc1cnc(N2CCOCC2)c2sc(NC(=O)c3cccc(F)c3)nc12', 312),
  ('COc1cnc(N2CCOCC2)c2sc(NC(=O)c3ccnc(N4CCOCC4)c3)nc12', 1647),
  ('COc1cccc(C(=O)Nc2nc3c(OC)cnc(N4CCOCC4)c3s2)c1', 436);

1: COc1cnc(N2CCOCC2)c2sc(NC(=O)c3ccc(F)cc3)nc12
2: COc1cnc(N2CCOCC2)c2sc(NC(=O)c3ccnc(CN4CCOCC4)c3)nc12
// query So which one has the bigger Selectivity here, 1 or 2 ? Respond using the label that marks the chosen record.
// result 1

I: COc1cnc(N2CCOCC2)c2sc(NC(=O)c3ccnc(C)c3)nc12
II: COc1cnc(N2CCOCC2)c2sc(NC(=O)N3CCC4(CCN(C)C4=O)CC3)nc12
// query So which one has the bigger Selectivity here, I or II ? Respond using the label that marks the chosen record.
// result I

A: COc1cc(C(=O)Nc2nc3c(OC)cnc(N4CCOCC4)c3s2)ccn1
B: COc1cnc(N2CCOCC2)c2sc(NC(=O)c3ccncc3)nc12
// query So which one has the bigger Selectivity here, A or B ? Respond using the label that marks the chosen record.
// result A
(A: 489, B: 258)

P: COCCN(C)Cc1ccc(C(=O)Nc2nc3c(OC)cnc(N4CCOCC4)c3s2)cc1
Q: COc1cnc(N2CCOCC2)c2sc(NC(=O)c3ccnc(N4CC(O)C4)c3)nc12
// query So which one has the bigger Selectivity here, P or Q ? Respond using the label that marks the chosen record.
// result Q
(Q: 868, P: 441)
